# System Under Test: Recombinant human mPGES-1 (Homo sapiens, UniProt O14684)
# Construct: made in house; host or cells: CHO cells (crude microsomal fractions)
# Assay: In-vitro screening of mPGES-1 inhibitors (inhibition of PGE2 formation from PGH2, HTRF detection)
# Format: biochemical
# Condition Label: 1 μM test compound; mPGES-1 enzyme, crude microsomal fractions; read-out: Percentage inhibition at 1 μM
Quantity Name: inhibition at 1 µM
Number plus unit, in that order.

Consider the worked cases shown below.
[[record]]
molecule = "O=C(NCc1ccc(Cl)c(-n2nc(-c3ccc(Cl)cc3F)[nH]c2=O)c1)C1CC1"
test_value = "66.2%"

[[record]]
molecule = "CC(C)(C)C(=O)NCc1ccc(Cl)c(-c2nn(-c3ccc(Cl)c(C(F)(F)F)c3)c(=O)[nH]2)c1F"
test_value = "99.9%"

[[record]]
molecule = "O=c1[nH]c(-c2cc(S(=O)(=O)NC3CC3)ccc2Cl)nn1-c1ccc(C(F)(F)F)cc1"
test_value = "52.2%"

[[record]]
molecule = "CC(C)(C)C(=O)NCc1ccc(Cl)c(-n2nc(-c3ccc(C(F)(F)F)cc3)[nH]c2=O)c1F"
test_value = "96.8%"

[[record]]
molecule = "CC(C)(C)C(=O)NCc1ccc(Cl)c(-n2nc(-c3ccc(C(F)(F)F)cc3F)[nH]c2=O)c1F"
test_value = "93.4%"

[[record]]
molecule = "COc1ccc(-n2nc(-c3c(F)cccc3Cl)[nH]c2=O)cc1C(=O)NC1(c2ccccc2C(F)(F)F)CC1"
test_value = "76.1%"


Ask | Give me measured inhibition at 1 µM, please, for this compound: O=c1[nH]c(-c2c(F)cccc2Cl)nn1-c1ccc(Nc2cccc(C(F)(F)F)c2)cc1
Reply | 1.53%

Ask | Consider the compound CC(C)(C)C(=O)NCc1ccc(Cl)c(-n2nc(-c3ccc(COCC(F)(F)F)cc3)[nH]c2=O)c1 and give its recorded inhibition at 1 µM.
Reply | 96%

Ask | Please list inhibition at 1 µM recorded for the compound O=c1[nH]c(-c2c(F)cccc2Cl)nn1-c1ccc(-c2ccc(C(F)(F)F)nc2)cc1
Reply | 18%

Ask | Tell me inhibition at 1 µM reported for CC(C)(C)C(=O)NCc1ccc(Cl)c(-n2nc(-c3c(F)cccc3Cl)[nH]c2=O)c1F
Reply | 3.34%

Ask | Answer with the recorded inhibition at 1 µM for the compound listed here: Cc1cc(C(F)(F)F)ccc1-n1nc(-c2cc(CNC(=O)C(C)(C)C)ccc2Cl)[nH]c1=O
Reply | 75.4%

Ask | Please supply the value of reported inhibition at 1 µM for the item CC(C)(C)C(=O)NCc1ccc(Cl)c(-n2nc(-c3ccc(C(F)(F)F)cc3)[nH]c2=O)c1
Reply | 94.2%

----------
# System Under Test: Recombinant human mPGES-1 (Homo sapiens, UniProt O14684)
# Construct: made in house; host or cells: CHO cells (crude microsomal fractions)
# Assay: In-vitro screening of mPGES-1 inhibitors (inhibition of PGE2 formation from PGH2, HTRF detection)
# Type: biochemical
# Condition Label: 3 μM test compound; mPGES-1 enzyme, crude microsomal fractions; read-out: Percentage inhibition at 3 μM
inhibition at 3 µM: recorded values
Reply with just the number (in %).

[[record]]
molecule = "O=C(Nc1cccc(C(F)(F)F)c1)c1ccc(-n2nc(-c3cc(CNC(=O)C4CC4)ccc3Cl)[nH]c2=O)cc1"
quantity_name = "inhibition at 3 µM"
units_of_measure = "%"
test_value = 99

[[record]]
molecule = "O=c1[nH]c(-c2c(F)cccc2Cl)nn1-c1ccc(C#Cc2ccccc2C(F)(F)F)cc1"
quantity_name = "inhibition at 3 µM"
units_of_measure = "%"
test_value = 96.8


Ask | Return value of inhibition at 3 µM for input COc1cc(-n2nc(-c3c(C)cccc3Cl)[nH]c2=O)ccc1-c1nc(-c2ccc(Cl)cc2)no1 , no commentary.
Reply | 91.8

Ask | Please report inhibition at 3 µM for the following compound: COc1cc(-n2nc(-c3cc(CNC(=O)C4CC4)ccc3Cl)[nH]c2=O)ccc1-c1nc(-c2ccc(Cl)cc2)no1
Reply | 98.5

----------
In this section, each of the compounds is paired with its reported inhibition at 10 µM.
# System Under Test: Recombinant human mPGES-1 (Homo sapiens)
# Construct: made in house; host or cells: CHO cells (crude microsomal fractions)
# Sequence (O14684 1-152): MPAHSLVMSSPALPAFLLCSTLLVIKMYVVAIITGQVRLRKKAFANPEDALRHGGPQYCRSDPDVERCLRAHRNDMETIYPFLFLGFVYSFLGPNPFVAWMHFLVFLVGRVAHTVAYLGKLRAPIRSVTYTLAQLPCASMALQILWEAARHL
# Assay: In-vitro screening of mPGES-1 inhibitors (inhibition of PGE2 formation from PGH2, HTRF detection)
# Assay type: biochemical
# Condition Label: 10 μM test compound; mPGES-1 enzyme, crude microsomal fractions; read-out: Percentage inhibition at 10 μM
Write down the numeric answer in % and omit the unit.

Would you please look over these solved cases?
[[record]]
compound = "CC(C)c1nnc(-c2ccc(-c3nn(-c4cc(CNC(=O)C(C)(C)C)ccc4Cl)c(=O)[nH]3)cc2)o1 [Example-153]"
quantity_name = "inhibition at 10 µM"
test_value = 99.7

[[record]]
compound = "CC(C)(C)C(=O)NCc1ccc(Cl)c(-c2nn(-c3ccc(F)c(Cl)c3)c(=O)[nH]2)c1 [Example-139]"
quantity_name = "inhibition at 10 µM"
test_value = 99.1

[[record]]
compound = "COc1cc(-n2nc(-c3c(F)cccc3Cl)[nH]c2=O)ccc1C(=O)Nc1nc2ccc(F)cc2s1 [Example-45]"
quantity_name = "inhibition at 10 µM"
test_value = 90.1

[[record]]
compound = "O=C(NCc1cc(-c2nn(-c3ccc(C(F)(F)F)cc3)c(=O)[nH]2)c(Cl)cc1F)C(F)(F)F [Example-113]"
quantity_name = "inhibition at 10 µM"
test_value = 99.1

[[record]]
compound = "O=c1[nH]c(-c2c(F)cccc2Cl)nn1-c1ccc(Nc2cccc(C(F)(F)F)c2)cc1 [Example-9]"
quantity_name = "inhibition at 10 µM"
test_value = 23.2

[[record]]
compound = "CC(C)C(=O)NCc1cc(-c2nn(-c3ccc(C(F)(F)F)cc3)c(=O)[nH]2)c(Cl)cc1F [Example-133]"
quantity_name = "inhibition at 10 µM"
test_value = 97.9


Ask | Answer with inhibition at 10 µM of Cc1ccc(Cl)cc1NC(=O)c1ccc(-n2nc(-c3c(F)cccc3Cl)[nH]c2=O)cc1 [Example-37] measured for Recombinant human mPGES-1 (Homo sapiens).
Reply | 94.3

Ask | Give inhibition at 10 µM only, for COc1cc(-n2nc(-c3c(F)cccc3Cl)[nH]c2=O)ccc1C(=O)Nc1cc(Cl)ccc1C [Example-38] , using Recombinant human mPGES-1 (Homo sapiens) data.
Reply | 84.9

----------
# System Under Test: Recombinant human mPGES-1 (Homo sapiens, UniProt O14684)
# Construct: made in house; host or cells: CHO cells (crude microsomal fractions)
# Assay: In-vitro screening of mPGES-1 inhibitors (inhibition of PGE2 formation from PGH2, HTRF detection)
# Assay type: biochemical
# Condition Label: 10 μM test compound; mPGES-1 enzyme, crude microsomal fractions; read-out: Percentage inhibition at 10 μM
Quantity Name: inhibition at 10 µM (%)
The figure you give is taken to be in %; do not add the unit.

Recorded results for 3 compounds are shown here.
[[record]]
compound = "O=c1[nH]c(-c2c(F)cccc2Cl)nn1-c1ccc(-c2cccc(OC(F)(F)F)c2)cc1 [Example-8]"
system_under_test = "Recombinant human mPGES-1 (Homo sapiens, UniProt O14684)"
units_of_measure = "%"
test_value = 87.2

[[record]]
compound = "Cc1csc(-c2ccc(-n3nc(-c4c(F)cccc4-c4cc(C)cs4)[nH]c3=O)cc2)c1 [Example-4]"
system_under_test = "Recombinant human mPGES-1 (Homo sapiens, UniProt O14684)"
units_of_measure = "%"
test_value = 69.7

[[record]]
compound = "O=C(NCc1ccc(Cl)c(-n2nc(-c3ccc(C#Cc4ccc(Cl)cc4F)cc3F)[nH]c2=O)c1)C1CC1 [Example-79]"
system_under_test = "Recombinant human mPGES-1 (Homo sapiens, UniProt O14684)"
units_of_measure = "%"
test_value = 97.1


Ask | Let me know recorded inhibition at 10 µM for COc1cc(-n2nc(-c3c(F)cccc3Cl)[nH]c2=O)ccc1C(=O)Nc1ccc(C)cc1F [Example-39] , thanks.
Reply | 96.4

Ask | Recall and state the measured inhibition at 10 µM for CC(C)(C)C(=O)NCc1cnc(C2CC2)c(-c2nn(-c3ccc(C(F)(F)F)cc3)c(=O)[nH]2)c1 [Example-180] .
Reply | 92.5

Ask | Tell us which inhibition at 10 µM value is on record for Cc1ccc(CNC(=O)C(F)(F)F)c(C)c1-c1nn(-c2ccc(C(F)(F)F)cc2)c(=O)[nH]1 [Example-106]
Reply | 96.8
